B1: FCHO1 (parent)
chain: FSDPSQSDPETKDFWLNMAALTEA

variants of: B1; assay: protein stability index of a GFP-peptide fusion (GPS, HEK-293T) (PSI 1-6); higher = more stable; details: c terminus: a fixed tail appended;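 further: lentivirally expressed fusions sorted by FACS into six bins by GFP to DsRed ratio, PSI derived from sequencing read proportions per bin multiplied by bin number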
Use Fulfilled when the recorded protein stability index is no lower than 3; use Not fulfilled when it is lower.

Field: example entries. Status: answers known.
residue change	class name
P9D	Fulfilled
S2M	Fulfilled
F1L	Fulfilled
S2V	Not fulfilled
E10H	Not fulfilled

Asked: Hi team, for `T11E` , is the recorded protein stability index at or above 3?
Given back: Fulfilled

Asked: Hi team, for `P9R` , is the recorded protein stability index at or above 3?
Given back: Not fulfilled

Asked: Hi team, for `T22P` , is the recorded protein stability index at or above 3?
Given back: Not fulfilled

Asked: Hi team, for `S2I` , is the recorded protein stability index at or above 3?
Given back: Not fulfilled

Asked: Hi team, for `S5G` , is the recorded protein stability index at or above 3?
Given back: Not fulfilled

Asked: Hi team, for `F14S` , is the recorded protein stability index at or above 3?
Given back: Fulfilled

Asked: Hi team, for `P9H` , is the recorded protein stability index at or above 3?
Given back: Not fulfilled

Asked: Hi team, for `A20T` , is the recorded protein stability index at or above 3?
Given back: Not fulfilled
